- Tested on: DU-145 prostate
- assayText: NCI tumour cell line growth inhibition, 48 h; in the data active means GI50 below about 0.43 µM; inactive means the rest
Choose the fitting class; nothing outside active, inactive is accepted.

Completed entries (count: 2):
> print(dat)
                                   compound  discretelabel
1  CC(C)C[C@H](NC(=O)[C@@H](Cc1ccccc1)n1ccc(Nc2ccccc2)cc1=O)B(O)O       inactive
2  COc1ccc(-c2cc(=O)c3c(OC)c4ccoc4c(/C=C/C=O)c3o2)cc1       inactive

Task: Which result was noted for this compound in the test: NS(=O)(=O)c1ccc(N=Nc2c(O)[nH]c3ccc(C(=O)NCCCn4ccnc4)cc23)cc1
Result: inactive

Task: Which result was noted for this compound in the test: O=C(Cc1cc(O)ccc1O)NO
Result: inactive

Task: Which result was noted for this compound in the test: Nc1c(C(=O)Nc2cccc(Cl)c2)sc2nc3c(cc12)C(O)CCC3 (centres undefined)
Result: active

Task: Which result was noted for this compound in the test: Cc1ccc(C2=NN(c3ccc(S(=O)(=O)NC(=O)NCc4ccccc4)cc3)C(c3ccc(N(C)C)cc3)C2)c(C)c1 (centres undefined)
Result: inactive

----------
- Test system: K-562 leukemia
- assayText: NCI tumour cell line growth inhibition, 48 h
measurementType: TGI

Below, each entry is followed by its recorded TGI result.
> print(dat)
                                   molecule  testresult
1  O=C1C(Cl)C(c2ccc(O)cc2)N1n1cnc2ccccc2c1=O (stereo not given)    > 100 µM
2  CCOC(=O)N1c2ccccc2N(C(=O)OCC)C1CC(=O)/C=C/c1ccccc1   > 30.7 µM
3            O=C(O)C1=Cc2cccc3cccc(c23)C1=O    > 100 µM
4  CCC1(c2ccc(OC)c(OC)c2)CCN(S(=O)(=O)c2ccc(C)cc2)C1 (stereo not given)     > 10 µM
5  CS(=O)(=O)N1CCC(Nc2ncc(C(=O)c3c(F)cccc3F)c(N)n2)CC1     > 25 µM
6            Clc1nc(Cl)c2ncn(-c3ccccc3)c2n1     7.05 µM

Now let's try a different one.
In plain terms, O=C1c2cc3c(cc2[C@@H]2C(O)[C@H]4O[C@H]4C4CCN1C42)OCO3 (stereo not given in full) has a documented TGI of > 37.5 µM

----------
- Test system: CAKI-1 renal
- assayText: NCI tumour cell line growth inhibition, 48 h
measurementType: GI50

Below, each entry is followed by its recorded GI50 result.
> print(dat)
                                   compound  measurementtype  testresult
1  NS(=O)(=O)c1ccc(N=Nc2c(O)[nH]c3ccc(C(=O)NCCCn4ccnc4)cc23)cc1             GI50  > 25000 nM
2  CS(=O)(=O)N1CCC(Nc2ncc(C(=O)c3c(F)cccc3F)c(N)n2)CC1             GI50     8760 nM
3  Cn1c2c(c3ccccc31)CCN1C[C@@H]3CCCC[C@H]3C[C@@H]21             GI50     2920 nM

Measured GI50 (CAKI-1 renal), entry CCOC(=O)C1=C(C)NC2SC(=O)/C(=C\c3cccc(Cl)c3)N2C1c1ccccc1 (stereo unspecified) : > 100000 nM

Measured GI50 (CAKI-1 renal), entry NC(=O)c1c[nH]c2ncnc(N)c12 : 2690 nM

Measured GI50 (CAKI-1 renal), entry C[n+]1cccc(NC(=O)c2ccc3ccc4ccc(C(=O)Nc5ccc[n+](C)c5)nc4c3n2)c1 : 4930 nM

Measured GI50 (CAKI-1 renal), entry CC1(C)CC[C@]23CC[C@]4(C)[C@H](CC[C@@H]5[C@@]6(C)CCCNC(C)(C)[C@@H]6CC[C@]54C)[C@H]2[C@H]1OC3 : 1620 nM

Measured GI50 (CAKI-1 renal), entry CCOC(=O)c1c(C)n([O-])c2cc(F)c(F)cc2[n+]1=O : 1630 nM
